System: NCI-H460 lung
Test: NCI tumour cell line growth inhibition, 48 h
measured attribute: TGI

compound	measured attribute	recorded result
Cc1c(-c2ccccc2)c(C#N)c2nnn(C3CCCCC3)c(=O)n12	TGI	> 100 µM
O=S1(=O)NC2CCC3NS(=O)(=O)NC4CCC(N1)N4S(=O)(=O)N23 (stereo not given)	TGI	> 100 µM
CO/C(=C/C(=O)C(Cl)(Cl)Cl)CC/C(=C\C(=O)C(Cl)(Cl)Cl)OC	TGI	99.3 µM
COc1cc(OC)c2c(=O)c(OC)c(-c3ccc4c(c3)OCO4)oc2c1OC	TGI	> 100 µM
COc1cc(/C=C/c2nc(N)nnc2C)cc(OC)c1OC	TGI	> 58.5 µM
CCOC(=O)NC(C(=O)OCC)(N1CCN(c2cc3c(cc2F)c(=O)c(C(=O)O)cn3CC)CC1)C(F)(F)F (stereo not given)	TGI	> 100 µM
COC(=O)C1(C(=O)OC)N=C(C)OC1c1ccccn1 (stereo not given)	TGI	> 100 µM
Cc1nc2c(cc1C(=O)N/N=C/c1ccc([N+](=O)[O-])cc1)c(=O)n(C)c(=O)n2C	TGI	> 100 µM
CC(=O)C=NCC(=O)O	TGI	> 100 µM
CCOC(=O)C(=[N+]=[N-])C(=O)CN1C(=O)C2CC(C)=C(C)CC2C1O (stereo not given)	TGI	> 100 µM
